All values here come from PubChem BioAssay AID1963963.

- System: 958667-338-R-J2-PDC tumor spheroids viability;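 further: spheroids exposed to compounds for seven days before readout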
- Procedure Summary: Anticancer human tumor 958667-338-R-J2-PDC patient-derived colon adenocarcinoma cell line growth inhibition [PI3K]
- Experimental Conditions: second compound 0.0316 µM; first compound 3.16 µM; stronger effect = lower value; spheroids with HUVEC and MSC
# criterion met = viability, T/C below 80% (exclusive); criterion not met = viability, T/C at/above 80%

Could you please tell me whether viability, T/C recorded for CC1(C)CCC(CN2CCN(c3ccc(C(=O)NS(=O)(=O)c4ccc(NCC5CCOCC5)c([N+](=O)[O-])c4)c(Oc4cnc5[nH]ccc5c4)c3)CC2)=C(c2ccc(Cl)cc2)C1 + Cc1nc(NC(=O)N2CCCC2C(N)=O)sc1-c1ccnc(C(C)(C)C(F)(F)F)c1 is less than 80%? criterion not met

Could you please tell me whether viability, T/C recorded for Cn1ncc(Cl)c1-c1cc(C(=O)NC(CN)Cc2cccc(F)c2)sc1Cl (stereo unspecified) + COc1c(OCCCN2CCOCC2)ccc2c3n(c(=NC(=O)c4cnc(N)nc4)nc12)CCN3 is less than 80%? criterion met

Could you please tell me whether viability, T/C recorded for C#Cc1c(F)ccc2cc(O)cc(-c3ncc4c(N5CC6CCC(C5)N6)nc(OCC56CCCN5CC(F)C6)nc4c3F)c12 (stereo unspecified) + CC(Nc1ccc2c(c1)OCCn1cc(N3C(=O)OCC3C(F)F)nc1-2)C(N)=O is less than 80%? criterion not met

Could you please tell me whether viability, T/C recorded for C#Cc1c(F)ccc2cc(O)cc(-c3ncc4c(N5CC6CCC(C5)N6)nc(OCC56CCCN5CC(F)C6)nc4c3F)c12 (stereo unspecified) + Cc1nc(NC(=O)N2CCCC2C(N)=O)sc1-c1ccnc(C(C)(C)C(F)(F)F)c1 is less than 80%? criterion met

Could you please tell me whether viability, T/C recorded for C[C@@H](NC(=O)c1ncnc(N)c1Cl)c1ncc(C(=O)Nc2cc(C(F)(F)F)c(Cl)cn2)s1 + COc1c(OCCCN2CCOCC2)ccc2c3n(c(=NC(=O)c4cnc(N)nc4)nc12)CCN3 is less than 80%? criterion not met

Could you please tell me whether viability, T/C recorded for CC(C)NCC(C(=O)N1CCN(c2ncnc3c2C(C)CC3O)CC1)c1ccc(Cl)cc1 (stereo unspecified) + COc1c(OCCCN2CCOCC2)ccc2c3n(c(=NC(=O)c4cnc(N)nc4)nc12)CCN3 is less than 80%? criterion met

Could you please tell me whether viability, T/C recorded for C[C@@H](NC(=O)c1ncnc(N)c1Cl)c1ncc(C(=O)Nc2cc(C(F)(F)F)c(Cl)cn2)s1 + CC(Nc1ccc2c(c1)OCCn1cc(N3C(=O)OCC3C(F)F)nc1-2)C(N)=O is less than 80%? criterion not met

Could you please tell me whether viability, T/C recorded for CC(C)NCC(C(=O)N1CCN(c2ncnc3c2C(C)CC3O)CC1)c1ccc(Cl)cc1 (stereo unspecified) + Cc1nc(NC(=O)N2CCCC2C(N)=O)sc1-c1ccnc(C(C)(C)C(F)(F)F)c1 is less than 80%? criterion not met

Could you please tell me whether viability, T/C recorded for Cn1nccc1Nc1nccc(-c2ccn(C(CO)c3ccc(Cl)c(F)c3)c(=O)c2)n1 (stereo unspecified) + CC(Nc1ccc2c(c1)OCCn1cc(N3C(=O)OCC3C(F)F)nc1-2)C(N)=O is less than 80%? criterion met

Could you please tell me whether viability, T/C recorded for CCCS(=O)(=O)Nc1ccc(F)c(C(=O)c2c[nH]c3ncc(-c4ccc(Cl)cc4)cc23)c1F + Cc1nc(NC(=O)N2CCCC2C(N)=O)sc1-c1ccnc(C(C)(C)C(F)(F)F)c1 is less than 80%? criterion not met
